Assay: Plasma pharmacokinetics of ALM201 in Phase I patients (validated LC-MS/MS, Phoenix WinNonlin)
Conditions: human, plasma, sc, 100 mg, Plasma concentration, geometric mean (CV%), 100 mg SC, day 18 cycle 1, 1.5 h after dosing, n = 2; LC-MS/MS
No end group written: not given here.
value-kind: level at 1.5 h (µg/mL)
State the answer as a number, implicitly in µg/mL.

Prompt line: Fill blank: measured level at 1.5 h of the sequence IRQQPRDPPTETLELEVSPDPAS [ALM201] is ____.
Response line: 2.21

====

Experiment: Plasma pharmacokinetics of ALM201 in Phase I patients (validated LC-MS/MS, Phoenix WinNonlin)
Conditions: human, plasma, sc, 300 mg, Plasma concentration, geometric mean (CV%), 300 mg SC, day 3 cycle 1, 2 h after dosing, n = 2 values (CV NC); LC-MS/MS
No end group written: not given here.
value-kind: level at 2 h (ng/mL)
State the answer as a number, implicitly in ng/mL.

Prompt line: Fill blank: measured level at 2 h of the sequence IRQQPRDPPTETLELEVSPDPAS [ALM201] is ____.
Response line: 2450
